test system: AMBEL (Ragweed, Common); experiment: Preemergence herbicidal evaluation; format: in vivo, Ambrosia artemisifolia; conditions: rate 0.1250 kg/ha; rated 4-5 weeks after treatment
Exercise: state measured Preemergence herbicidal rating AMBEL for each of the molecules provided.

# example entries with known answers
- Molecule: "CCOC(=O)CN1C(=O)C(Cc2ccccc2OC(C)C(=O)O)S/C1=N/c1cc(-n2c(=O)cc(C(F)(F)F)n(C)c2=O)c(F)cc1Cl (stereo not drawn) [Compound 114]"
  Preemergence herbicidal rating AMBEL: 5.0
- Molecule: "Cn1c(C(F)(F)F)cc(=O)n(-c2cc(/N=C3/SCC(=O)N3CC(=O)O)c(Cl)cc2F)c1=O [Compound 52]"
  Preemergence herbicidal rating AMBEL: 2.0

Now turn to the next molecule.
Q) Which Preemergence herbicidal rating AMBEL is reported with AMBEL (Ragweed, Common) for this entry: Cn1c(C(F)(F)F)cc(=O)n(-c2cc(N=C3SCC(=O)N3[C@H](Cc3ccccc3)C(=O)O)c(Cl)cc2F)c1=O [Compound 69] ?
A) 9.0

* * *

tested on: CYPSE (Flatsedge); assay: Preemergence weed control under flooded paddy conditions; type: in vivo, Cyperus serotinus; settings: 0.2500 kg/ha, rated 3-4 weeks after treatment
I'd be grateful if you could share measured herbicidal effect rating, CYPSE for these entries.
Give bare numbers.

Would you please look over these solved cases?
- Compound: "CCOC(=O)CN1C(=O)C(SC)SC1=Nc1cc(-n2c(=O)cc(C(F)(F)F)n(C)c2=O)c(F)cc1Cl (centres unmarked)"
  Tested Target: "CYPSE (Flatsedge)"
  herbicidal effect rating, CYPSE: 9.0
- Compound: "Cn1c(C(F)(F)F)cc(=O)n(-c2cc(N=C3SCC(=O)N3Cc3ccc(Cl)cc3)c(Cl)cc2F)c1=O"
  Tested Target: "CYPSE (Flatsedge)"
  herbicidal effect rating, CYPSE: 9.0
- Compound: "COc1ccc(CN2C(=O)CSC2=Nc2cc(-n3c(=O)cc(C(F)(F)F)n(C)c3=O)c(F)cc2Cl)c(OC)c1"
  Tested Target: "CYPSE (Flatsedge)"
  herbicidal effect rating, CYPSE: 0.0
- Compound: "CN1C(=O)C(CC(=O)NO)SC1=Nc1cc(-n2c(=O)cc(C(F)(F)F)n(C)c2=O)c(F)cc1Cl (centres unmarked)"
  Tested Target: "CYPSE (Flatsedge)"
  herbicidal effect rating, CYPSE: 9.0

Field: next compound
Q) Requested read-out: herbicidal effect rating, CYPSE. Entry: "CCCN1C(=O)CSC1=Nc1cc(-n2c(=O)cc(C(F)(F)F)n(C)c2=O)c(F)cc1Cl"
A) 9.0

* * *

tested on: ZEAMX (Corn, Field); test: Postemergence herbicidal evaluation; assay type: in vivo, Zea mays; conditions: postemergence, rate 0.0158 kg/ha
Readout Type: ZEAMX herbicidal rating
Answers are plain numbers.

A selection of reference data follows.
- Compound: "CCOC(=O)CN1C(=O)C(=C(C)C)S/C1=N/c1cc(-n2c(=O)cc(C(F)(F)F)n(C)c2=O)c(F)cc1Cl"
  Readout Type: "ZEAMX herbicidal rating"
  Test Value: 4.5
- Compound: "CCOC(=O)C(c1ccc(Cl)cc1)N1C(=O)CSC1=Nc1cc(-n2c(=O)cc(C(F)(F)F)n(C)c2=O)c(F)cc1Cl (racemic)"
  Readout Type: "ZEAMX herbicidal rating"
  Test Value: 5.0
- Compound: "COC(=O)[C@H](Cc1ccc([N+](=O)[O-])cc1)N1C(=O)CSC1=Nc1cc(-n2c(=O)cc(C(F)(F)F)n(C)c2=O)c(F)cc1Cl"
  Readout Type: "ZEAMX herbicidal rating"
  Test Value: 4.5
- Compound: "Cn1c(C(F)(F)F)cc(=O)n(-c2cc(N=C3SCC(=O)N3[C@H](Cc3ccccc3)C(=O)O)c(Cl)cc2F)c1=O"
  Readout Type: "ZEAMX herbicidal rating"
  Test Value: 4.5

Turning now to a further record.
Q) Which value of ZEAMX herbicidal rating has been reported for "COC(=O)C1(N2C(=O)CSC2=Nc2cc(-n3c(=O)cc(C(F)(F)F)n(C)c3=O)c(F)cc2Cl)CCCCC1" in the records?
A) 6.5
